Value source: PubChem BioAssay (NCI)

- Experiment: NCI Yeast Anticancer Drug Screen. Data for the rad52 strain (AID 147)
- Experimental Conditions: S. cerevisiae rad52 mutant growth inhibition; at 33.0 µM; stronger effect = higher value
This is part of a sample that, as a whole, favours compounds with a hit. Of some 79,000 tested, about 15% had one in any assay.
Each record gets a class by growth inhibition: band A = under 20%, band B = from 20% up to 50%, band C = 50% and over

Problem: Record `CN(Cc1cnc2nc(N)nc(N)c2n1)c1ccc(C(=O)N[C@@H](CCC(=O)O)C(=O)O)cc1` — which class?
Result: band B

Problem: Please give the result for `NC(=NCc1ccccc1)N/N=C\c1ccnc2ccccc12` too.
Result: band A

Problem: One more compound: `CC(=O)[O][Bi]([c]1ccccc1)[c]1ccccc1`
Result: band C

Problem: Now consider `COc1cc2ccc(/C=C\[N+](=O)[O-])cc2cc1OC` .
Result: band C

Problem: Could you do the same for O=C1NC(=O)C2C3C=CC(C3)C12 (stereo not given) , please?
Result: band A

Problem: Same again, this time with `CCC/C(Cl)=N\OC(=O)Nc1cccc(C(F)(F)F)c1`
Result: band A

Problem: `O=Nc1cccnc1N=O` ?
Result: band C

Problem: Try this compound too: `CCCCCCCCCCCCCCCCCCNC`
Result: band A

Problem: Note, next up: CCC(C)COC(=O)c1ccc(N=Cc2ccc(C=Nc3ccc(C(=O)OCC(C)CC)cc3)cc2)cc1 (stereo not given)
Result: band A

Problem: Would you kindly repeat that for CCCCCCCCC/C=C/C=C/C(=O)NCC(=O)NC1C(O)C(O)C(Nc2ncnc3nc[nH]c23)OC1C(O)CO (stereo not given) ?
Result: band C

Problem: Then what about the compound O=C1CSC(/C=C/c2ccccc2)N1c1ccc(-c2ccc(-n3c(-c4ccccc4)nc4ccccc4c3=O)cc2)cc1 (stereo not given) ?
Result: band A

Problem: Try this compound next: CC(Br)C(=O)c1ccc2cc(Br)c3ccccc3c2c1 (stereo not given)
Result: band A

Problem: Note, next up: `COc1cccc2nc3ccccc3nc12`
Result: band C

Problem: Could you do the same for `O=C1C(Nc2ccccc2)=C(Oc2ccccc2)C(=O)c2ccccc21` , please?
Result: band B

Problem: Now try `S=C(S)NN1CCOCC1` .
Result: band B

Problem: Next entry: `O=C(NCCCCCCCN1CCCCCCC1)C(C1CCCCC1)C1CCCCC1`
Result: band C

Problem: Same for `S=C(N/N=C/c1ccccn1)Nc1ccc(Cl)cc1`
Result: band A

Problem: // same read-out, input: `c1ccc2c(c1)Oc1cccc3cccc-2c13`
Result: band B

Problem: Now try `COc1ccc2ccc3ccccc3c2c1C=O` .
Result: band A

Problem: Now give it for `c1ccc2c(c1)NC(NC1Nc3ccccc3N1)N2` too.
Result: band A

Problem: // next record Nc1ccccc1CC(O)C(=O)O (stereo not given)
Result: band C

Problem: What would you report for `Cc1[nH]c2ccccc2c1C(c1ccc(N)cc1)c1c(C)[nH]c2ccccc12` ?
Result: band A

Problem: What about `CCC(=O)Oc1c(Cl)cc(Cl)c2ccccc12` ?
Result: band A

Problem: Repeat for the following compound: `CCN(CC)CCN1C(=O)c2cccc3cc(OC)cc(c23)C1=O`
Result: band C
